Origin of the recorded values: paper PMC9217908

target: CAT1 (cationic amino acid transporter 1, CAT1/SLC7A1) (Homo sapiens, UniProt P30825); construct: full-length human transporter stably transfected in HEK cells (HEK-CAT1); net uptake against HEK-VC vector control cells; assay: cell-based; design: species or system HEK-CAT1 (HEK293 stably transfected); Inhibition of net CAT1-mediated [3H]-L-homoarginine (1 uM) uptake, 2.5 min, scintillation counting, vector control subtracted; details: HEK293; L-homoarginine 1 uM as substrate; read-out: % Inhibition of L-homoarginine uptake at 200 µM
Sequence (P30825 whole entry): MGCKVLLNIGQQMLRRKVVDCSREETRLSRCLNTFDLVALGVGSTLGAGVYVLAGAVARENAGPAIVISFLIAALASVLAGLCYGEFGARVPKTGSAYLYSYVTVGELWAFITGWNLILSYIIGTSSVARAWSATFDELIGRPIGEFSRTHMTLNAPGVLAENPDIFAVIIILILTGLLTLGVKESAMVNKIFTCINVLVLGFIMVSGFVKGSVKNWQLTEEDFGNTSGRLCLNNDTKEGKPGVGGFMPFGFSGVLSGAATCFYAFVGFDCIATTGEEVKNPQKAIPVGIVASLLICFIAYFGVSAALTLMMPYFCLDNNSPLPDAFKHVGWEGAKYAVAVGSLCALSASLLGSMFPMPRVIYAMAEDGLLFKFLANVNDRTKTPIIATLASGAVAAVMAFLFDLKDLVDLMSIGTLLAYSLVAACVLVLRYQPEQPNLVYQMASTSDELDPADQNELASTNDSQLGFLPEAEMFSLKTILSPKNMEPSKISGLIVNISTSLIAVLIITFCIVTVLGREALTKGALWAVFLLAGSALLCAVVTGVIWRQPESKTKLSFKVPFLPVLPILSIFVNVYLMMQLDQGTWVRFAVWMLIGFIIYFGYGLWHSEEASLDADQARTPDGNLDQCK
Readout type: inhibition at 200 µM (%)

| Compound | Assayed system | Unit annotation | Numeric result |
| --- | --- | --- | --- |
| CN(Cc1cnc2nc(N)nc(N)c2n1)c1ccc(C(=O)N[C@@H](CCC(=O)O)C(=O)O)cc1 [Methotrexate] | CAT1 (cationic amino acid transporter 1, CAT1/SLC7A1) (Homo sapiens, UniProt P30825) | % | -6.8 |
| Cc1ccc(-c2ncc(Cl)cc2-c2ccc(S(C)(=O)=O)cc2)cn1 | CAT1 (cationic amino acid transporter 1, CAT1/SLC7A1) (Homo sapiens, UniProt P30825) | % | 31.8 |
| CCCCc1nc(Cl)c(CO)n1Cc1ccc(-c2ccccc2-c2nnn[nH]2)cc1 | CAT1 (cationic amino acid transporter 1, CAT1/SLC7A1) (Homo sapiens, UniProt P30825) | % | -27.1 |
| CN(C)CCCN1c2ccccc2CCc2ccc(Cl)cc21 | CAT1 (cationic amino acid transporter 1, CAT1/SLC7A1) (Homo sapiens, UniProt P30825) | % | -12.2 |

---

biological target: CAT1 (cationic amino acid transporter 1, CAT1/SLC7A1) (Homo sapiens); construct: full-length human transporter stably transfected in HEK cells (HEK-CAT1); net uptake against HEK-VC vector control cells; experiment: cell-based; design: species or system HEK-CAT1 (HEK293 stably transfected); Inhibition of net CAT1-mediated [3H]-L-arginine (100 uM) uptake, 5 min, scintillation counting, vector control subtracted; details: HEK293; L-arginine 100 uM as substrate; read-out: % Inhibition of L-arginine uptake at 20 µM

| Compound | inhibition at 20 µM, % |
| --- | --- |
| COc1ccc([C@@H]2Sc3ccccc3N(CCN(C)C)C(=O)[C@@H]2OC(C)=O)cc1 | -7.3 |
| CCN(CC)CCNC(=O)c1cc(Cl)c(N)cc1OC [Metoclopramide] | 7.5 |
| C[C@]12CCC(=O)C=C1CC[C@H]1[C@@H]3CC[C@](O)(C(=O)CO)[C@@]3(C)C[C@H](O)[C@@]12F | -29.4 |
| CNCCC(Oc1ccc(C(F)(F)F)cc1)c1ccccc1 (stereo not drawn) | 46.5 |
| C[C@H]1c2cccc(O)c2C(=O)C2=C(O)[C@]3(O)C(=O)C(C(N)=O)=C(O)[C@@H](N(C)C)[C@@H]3[C@@H](O)[C@@H]21 | 9.7 |
| Cc1nnc2n1-c1ccc(Cl)cc1C(c1ccccc1)=NC2 | -3.9 |
| CNC(=C[N+](=O)[O-])NCCSCc1ccc(CN(C)C)o1 | 7.8 |
| CC(=O)S[C@@H]1CC2=CC(=O)CC[C@]2(C)[C@H]2CC[C@@]3(C)[C@@H](CC[C@@]34CCC(=O)O4)[C@H]12 | -3.7 |
| C[C@@H](O)[C@H]1C(=O)N2C(C(=O)O)=C(S[C@@H]3CN[C@H](C(=O)Nc4cccc(C(=O)O)c4)C3)[C@H](C)[C@H]12 | -28.9 |
| C=CC[C@@H]1/C=C(\C)C[C@H](C)C[C@H](OC)[C@H]2O[C@@](O)(C(=O)C(=O)N3CCCC[C@H]3C(=O)O[C@H](/C(C)=C/[C@@H]3CC[C@@H](O)[C@H](OC)C3)[C@H](C)[C@@H](O)CC1=O)[C@H](C)C[C@@H]2OC | 28.5 |
| CCCC1O[C@@H]2C[C@H]3[C@@H]4CCC5=CC(=O)C=C[C@]5(C)[C@H]4[C@@H](O)C[C@]3(C)[C@]2(C(=O)CO)O1 (stereo partly drawn) [Budesonide] | -9.7 |
| CN(C)C(=O)C(CCN1CCC(O)(c2ccc(Cl)cc2)CC1)(c1ccccc1)c1ccccc1 [Loperamide] | 16.9 |
| CCc1oc2ccccc2c1C(=O)c1cc(Br)c(O)c(Br)c1 | -12.4 |
| CCCC(CCC)C(=O)O | 12.6 |
| Cc1ccc(-c2ncc(Cl)cc2-c2ccc(S(C)(=O)=O)cc2)cn1 | 0.7 |

---

In this section we review reported inhibition at 20 µM values for a set of compounds.
molecular target: CAT1 (cationic amino acid transporter 1, CAT1/SLC7A1) (Homo sapiens, UniProt P30825); construct: full-length human transporter stably transfected in HEK cells (HEK-CAT1); net uptake against HEK-VC vector control cells; assay: cell-based; parameters: species or system HEK-CAT1 (HEK293 stably transfected); Inhibition of net CAT1-mediated [3H]-ADMA (1 uM) uptake, 2.5 min, scintillation counting, vector control subtracted; conditions: HEK293; ADMA 1 uM as substrate; read-out: % Inhibition of ADMA uptake at 20 µM
Readout type: inhibition at 20 µM (%)

| Compound | Readout type | Numeric result |
| --- | --- | --- |
| Cc1nccn1CC1CCc2c(c3ccccc3n2C)C1=O (stereo not shown) [Ondansetron] | inhibition at 20 µM | -0.4 |
| COc1ccc2c(c1)[C@]13CCCC[C@@H]1[C@H](C2)N(C)CC3 [Dextromethorphan] | inhibition at 20 µM | -3.3 |
| CC(C)Cc1ccc(C(C)C(=O)O)cc1 (stereo not shown) [Ibuprofen] | inhibition at 20 µM | -20.2 |
| NS(=O)(=O)c1cc2c(cc1Cl)NCNS2(=O)=O [Hydrochlorothiazide] | inhibition at 20 µM | 5.5 |
| C[C@]12C=CC(=O)C=C1CC[C@@H]1[C@@H]2C(=O)C[C@@]2(C)[C@H]1CC[C@]2(O)C(=O)CO [Prednisone] | inhibition at 20 µM | -33.3 |
| CCCCc1nc(Cl)c(CO)n1Cc1ccc(-c2ccccc2-c2nnn[nH]2)cc1 [Losartan] | inhibition at 20 µM | 7 |
| C=CC[C@@H]1/C=C(\C)C[C@H](C)C[C@H](OC)[C@H]2O[C@@](O)(C(=O)C(=O)N3CCCC[C@H]3C(=O)O[C@H](/C(C)=C/[C@@H]3CC[C@@H](O)[C@H](OC)C3)[C@H](C)[C@@H](O)CC1=O)[C@H](C)C[C@@H]2OC [Tacrolimus] | inhibition at 20 µM | -14.2 |

---

target: CAT1 (cationic amino acid transporter 1, CAT1/SLC7A1) (Homo sapiens, UniProt P30825); construct: full-length human transporter stably transfected in HEK cells (HEK-CAT1); net uptake against HEK-VC vector control cells; test: cell-based; design: species or system HEK-CAT1 (HEK293 stably transfected); Inhibition of net CAT1-mediated [3H]-ADMA (1 uM) uptake, 2.5 min, scintillation counting, vector control subtracted; conditions: HEK293; ADMA 1 uM as substrate; read-out: % Inhibition of ADMA uptake at 20 µM

| Molecule | inhibition at 20 µM (%) |
| --- | --- |
| Cc1ccc(NC(=O)c2ccc(CN3CCN(C)CC3)cc2)cc1Nc1nccc(-c2cccnc2)n1 [Imatinib] | 11.2 |
| CC#C[C@]1(O)CC[C@H]2[C@@H]3CCC4=CC(=O)CCC4=C3[C@@H](c3ccc(N(C)C)cc3)C[C@@]21C [Mifepristone] | 8.1 |
| CN(C)CCCC1(c2ccc(F)cc2)OCc2cc(C#N)ccc21 (stereo not drawn) [Citalopram] | 8.8 |
| CNCCC(Oc1ccc(C(F)(F)F)cc1)c1ccccc1 (stereo not drawn) [Fluoxetine] | -2.4 |
| Nc1ccn([C@@H]2CS[C@H](CO)O2)c(=O)n1 [Lamivudine] | -5.3 |
| CN1CCC(=C2c3ccccc3CC(=O)c3sccc32)CC1 [Ketotifen] | 6.4 |
| COc1cc2nc(N3CCN(C(=O)c4ccco4)CC3)nc(N)c2cc1OC [prazosin] | 36.9 |
| c1c[nH]cn1 [Imidazole] | -4.7 |
| CC(CN1c2ccccc2Sc2ccccc21)N(C)C (stereo not drawn) [Promethazine] | 4.2 |

---

Target: CAT1 (cationic amino acid transporter 1, CAT1/SLC7A1) (Homo sapiens)
Construct: full-length human transporter stably transfected in HEK cells (HEK-CAT1); net uptake against HEK-VC vector control cells
Experiment: cell-based
Set-up: species or system HEK-CAT1 (HEK293 stably transfected); Inhibition of net CAT1-mediated [3H]-L-homoarginine (1 uM) uptake, 2.5 min, scintillation counting, vector control subtracted
Settings: HEK293; L-homoarginine 1 uM as substrate; read-out: % Inhibition of L-homoarginine uptake at 200 µM
Procedure: Uptake and inhibition assays using HEK-CAT1 and HEK-VC cells and L-arginine, L-homoarginine, and ADMA as substrates were performed using the protocol described (Strobel et al. [2012]; Chafai et al. [2017]). […] The net uptake was determined by subtracting the total amount taken up by control cells from the amount taken up by CAT1-expressing cells, which was expressed as a percentage of the amount taken up by the control. […]
Entries and their inhibition at 200 µM

| Compound | inhibition at 200 µM (%) |
| --- | --- |
| O=C(O)Cc1ccccc1Nc1c(Cl)cccc1Cl | -23.1 |
| CC[C@H](C)C(=O)O[C@H]1C[C@H](O)C=C2C=C[C@H](C)[C@H](CC[C@@H](O)C[C@@H](O)CC(=O)O)[C@H]21 | -10.1 |
| CCOC(=O)C1=C(C)NC(C)=C(C(=O)OC)C1c1cccc(Cl)c1Cl (centres unmarked) | -18.2 |
| CC(=O)Nc1ccc(O)cc1 | 4.4 |
| Nc1ccc(S(=O)(=O)c2ccc(N)cc2)cc1 | -24.7 |
| Cc1cc(=O)n(-c2ccccc2)n1C [Antipyrine] | 12.8 |
| CC[C@H]1OC(=O)[C@H](C)[C@@H](O[C@H]2C[C@@](C)(OC)[C@@H](O)[C@H](C)O2)[C@H](C)[C@@H](O[C@@H]2O[C@H](C)C[C@H](N(C)C)[C@H]2O)[C@](C)(O)C[C@@H](C)CN(C)[C@H](C)[C@@H](O)[C@]1(C)O | 26.8 |
| C[C@H]1O[C@@H](O[C@H]2[C@@H](O)C[C@H](O[C@H]3[C@@H](O)C[C@H](O[C@H]4CC[C@@]5(C)[C@H](CC[C@@H]6[C@@H]5CC[C@]5(C)[C@@H](C7=CC(=O)OC7)CC[C@]65O)C4)O[C@@H]3C)O[C@@H]2C)C[C@H](O)[C@@H]1O | -12.6 |
